Catalogue of logD values
Assay: Log D (1-octanol/phosphate buffer pH 7.4), shake flask method
Assay type: physicochemical

[
  {
    "CHEMICAL STRUCTURE": "COc1ccc(S(N)(=O)=O)cc1",
    "RECORDED METRIC": "logD",
    "REPORTED MEASUREMENT": 0.42
  },
  {
    "CHEMICAL STRUCTURE": "NS(=O)(=O)c1ccc(OCCF)cc1",
    "RECORDED METRIC": "logD",
    "REPORTED MEASUREMENT": 0.32
  },
  {
    "CHEMICAL STRUCTURE": "NS(=O)(=O)c1ccc(CCNC(=O)c2ccc(OCCF)cc2)cc1",
    "RECORDED METRIC": "logD",
    "REPORTED MEASUREMENT": 1.13
  }
]

Could you now look at the following molecule, please?
# query: logD of entry COc1ccc(C(=O)NCCc2ccc(S(N)(=O)=O)cc2)cc1 1.19

Recorded values, source paper PMC3561128.
